Property: Yield (%) β-glucosidase from almonds; scope: individual compounds
# Test system: β-glucosidase from almonds
# measurement_protocol: Indigogenic reaction with β-glucosidase from almonds
# Format: biochemical
# measurement_parameters: indoxyl 1 mM, enzyme 1 unit/mL, acetate buffer pH 5, 5% DMF, 37° C., 16-19 h; ε = 1.27 × 10^4 M^-1 cm^-1 (measured for 4)
# Description: With diverse glucosyl-indoxyl compounds in hand, we carried out a set of studies to examine indigoid-dye formation upon enzymatic cleavage of the glucosyl unit under physiological conditions. […] All indigoid dye was dissolved in each case for quantitative evaluation. Reactions with β-glucosidase from almonds. […] The resulting solution was analyzed by absorption spectroscopy.
State the answer as a number, implicitly in %.

Worked examples follow.
chem_smiles | result_unit | Yield (%) β-glucosidase from almonds
COC(=O)COc1ccc2[nH]cc(O[C@@H]3O[C@H](CO)[C@@H](O)[C@H](O)[C@H]3O)c2c1Br | % | 68
C#CCOc1c(Br)cc2[nH]cc(O[C@@H]3O[C@H](CO)[C@@H](O)[C@H](O)[C@H]3O)c2c1Br | % | 105

// below: Yield (%) β-glucosidase from almonds requested for another compound
Query `COC(=O)COc1c(Br)cc2[nH]cc(O[C@@H]3O[C@H](CO)[C@@H](O)[C@H](O)[C@H]3O)c2c1Br` yields Yield (%) β-glucosidase from almonds of 122

====

# Test system: rat liver homogenate
# measurement_protocol: Indigoid-dye formation in rat liver homogenate
# Type: biochemical
# measurement_parameters: indoxyl 1 mM, 5% DMF, 37° C., 24 h; ε = 1.27 × 10^4 M^-1 cm^-1
Property: Yield (%) rat liver homogenate; scope: individual compounds

chem_smiles | tgt | Yield (%) rat liver homogenate
COC(=O)COc1ccc2[nH]cc(O[C@@H]3O[C@H](CO)[C@@H](O)[C@H](O)[C@H]3O)c2c1Br | rat liver homogenate | <5%
C#CCOc1c(Br)cc2[nH]cc(O[C@@H]3O[C@H](CO)[C@@H](O)[C@H](O)[C@H]3O)c2c1Br | rat liver homogenate | 50%
C#CCOc1ccc2[nH]cc(O[C@@H]3O[C@H](CO)[C@@H](O)[C@H](O)[C@H]3O)c2c1 | rat liver homogenate | 11%
C#CCOc1ccc2[nH]cc(O[C@@H]3O[C@H](CO)[C@@H](O)[C@H](O)[C@H]3O)c2c1Br | rat liver homogenate | 17%
COc1nc(Oc2c(Br)cc3[nH]cc(O[C@@H]4O[C@H](CO)[C@@H](O)[C@H](O)[C@H]4O)c3c2Br)nc(N2CCOCC2)n1 | rat liver homogenate | <5%

Query `COC(=O)COc1ccc2[nH]cc(O[C@@H]3O[C@H](CO)[C@@H](O)[C@H](O)[C@H]3O)c2c1` yields Yield (%) rat liver homogenate of <5%

Query `COc1nc(Oc2ccc3[nH]cc(O[C@@H]4O[C@H](CO)[C@@H](O)[C@H](O)[C@H]4O)c3c2)nc(N2CCOCC2)n1` yields Yield (%) rat liver homogenate of <5%

Query `COc1nc(Oc2ccc3[nH]cc(O[C@@H]4O[C@H](CO)[C@@H](O)[C@H](O)[C@H]4O)c3c2Br)nc(N2CCOCC2)n1` yields Yield (%) rat liver homogenate of <5%

Query `COC(=O)COc1c(Br)cc2[nH]cc(O[C@@H]3O[C@H](CO)[C@@H](O)[C@H](O)[C@H]3O)c2c1Br` yields Yield (%) rat liver homogenate of <5%

====

# tgt: β-glucosidase from Agrobacterium (Agrobacterium sp., UniProt P12614)
# Construct: purchased Megazyme; host or cells: recombinant
# Sequence (P12614 1-459): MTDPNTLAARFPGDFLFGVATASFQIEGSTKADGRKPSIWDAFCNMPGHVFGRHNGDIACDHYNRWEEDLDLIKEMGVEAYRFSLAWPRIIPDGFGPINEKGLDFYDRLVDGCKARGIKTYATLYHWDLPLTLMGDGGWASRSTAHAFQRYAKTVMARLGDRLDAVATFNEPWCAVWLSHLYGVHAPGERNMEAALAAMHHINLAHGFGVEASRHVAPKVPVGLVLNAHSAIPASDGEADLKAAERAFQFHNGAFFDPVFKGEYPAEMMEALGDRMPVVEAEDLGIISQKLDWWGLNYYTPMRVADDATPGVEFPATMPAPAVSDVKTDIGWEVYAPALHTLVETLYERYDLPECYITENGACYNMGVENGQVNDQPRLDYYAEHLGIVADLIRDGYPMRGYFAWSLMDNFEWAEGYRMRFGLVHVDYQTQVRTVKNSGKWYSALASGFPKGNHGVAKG
# measurement_protocol: Indigogenic reaction with β-glucosidase from Agrobacterium
# Format: biochemical
# measurement_parameters: indoxyl 100 μM, enzyme 200 nM, 0.05 M phosphate buffer pH 7.0, 2% DMF, 37° C., 2 h, n=3; ε = 1.27 × 10^4 M^-1 cm^-1
# Method: Next, the β-glucosidase from Agrobacterium sp. was investigated as the trigger enzyme for indigoid dye formation. […] Reactions with β-glucosidase from Agrobacterium. An indoxyl compound in DMF (2 μL, 5 mM) and β-glucosidase from Agrobacterium in 10 mM phosphate buffer [2 μL, 10 μM, pH 7.0, containing 50 mM NaCl and 0.6 M (NH4)2SO4] were mixed with 50 mM phosphate buffer (96 μL, pH 7.0). […] The resulting solution was analyzed by absorption spectroscopy. […]
Outcome: t for Yield (%) β-glucosidase from Agrobacterium of at least 40%; f for anything lower.

Q: Is reported Yield (%) β-glucosidase from Agrobacterium greater than or equal to 40% here: COC(=O)COc1ccc2[nH]cc(O[C@@H]3O[C@H](CO)[C@@H](O)[C@H](O)[C@H]3O)c2c1Br [Indoxyl 23]
A: t

Q: Is reported Yield (%) β-glucosidase from Agrobacterium greater than or equal to 40% here: COC(=O)COc1ccc2[nH]cc(O[C@@H]3O[C@H](CO)[C@@H](O)[C@H](O)[C@H]3O)c2c1 [Indoxyl 22]
A: f

Q: Is reported Yield (%) β-glucosidase from Agrobacterium greater than or equal to 40% here: C#CCOc1ccc2[nH]cc(O[C@@H]3O[C@H](CO)[C@@H](O)[C@H](O)[C@H]3O)c2c1Br [Indoxyl 26]
A: t

Q: Is reported Yield (%) β-glucosidase from Agrobacterium greater than or equal to 40% here: COc1nc(Oc2c(Br)cc3[nH]cc(O[C@@H]4O[C@H](CO)[C@@H](O)[C@H](O)[C@H]4O)c3c2Br)nc(N2CCOCC2)n1 [Indoxyl 21]
A: t

Q: Is reported Yield (%) β-glucosidase from Agrobacterium greater than or equal to 40% here: COC(=O)COc1c(Br)cc2[nH]cc(O[C@@H]3O[C@H](CO)[C@@H](O)[C@H](O)[C@H]3O)c2c1Br [Indoxyl 24]
A: t

Q: Is reported Yield (%) β-glucosidase from Agrobacterium greater than or equal to 40% here: C#CCOc1ccc2[nH]cc(O[C@@H]3O[C@H](CO)[C@@H](O)[C@H](O)[C@H]3O)c2c1 [Indoxyl 25]
A: f

Q: Is reported Yield (%) β-glucosidase from Agrobacterium greater than or equal to 40% here: OC[C@H]1O[C@@H](Oc2c[nH]c3cc(Br)c(OCC4[C@H]5CCC#CCC[C@@H]45)c(Br)c23)[C@H](O)[C@@H](O)[C@@H]1O (stereo partly shown) [Indoxyl 30]
A: f

====

# Test system: β-glucosidase from almonds
# measurement_protocol: Indigogenic reaction with β-glucosidase from almonds
# Assay type: biochemical
# measurement_parameters: indoxyl 1 mM, enzyme 1 unit/mL, acetate buffer pH 5, 5% DMF, 37° C., 16-19 h; ε = 1.27 × 10^4 M^-1 cm^-1 (measured for 4)
# Protocol: With diverse glucosyl-indoxyl compounds in hand, we carried out a set of studies to examine indigoid-dye formation upon enzymatic cleavage of the glucosyl unit under physiological conditions. […] All indigoid dye was dissolved in each case for quantitative evaluation. Reactions with β-glucosidase from almonds. […] The resulting solution was analyzed by absorption spectroscopy.
Property: Yield (%) β-glucosidase from almonds; scope: individual molecules

Worked examples follow.
chem_smiles | Yield (%) β-glucosidase from almonds
COC(=O)COc1ccc2[nH]cc(O[C@@H]3O[C@H](CO)[C@@H](O)[C@H](O)[C@H]3O)c2c1 | <1%
C#CCOc1ccc2[nH]cc(O[C@@H]3O[C@H](CO)[C@@H](O)[C@H](O)[C@H]3O)c2c1Br | 56%
C#CCOc1ccc2[nH]cc(O[C@@H]3O[C@H](CO)[C@@H](O)[C@H](O)[C@H]3O)c2c1 | <5%

// below: Yield (%) β-glucosidase from almonds requested for another molecule
Query `COc1nc(Oc2ccc3[nH]cc(O[C@@H]4O[C@H](CO)[C@@H](O)[C@H](O)[C@H]4O)c3c2)nc(N2CCOCC2)n1` yields Yield (%) β-glucosidase from almonds of <1%
